Measured values drawn from the supplement of paper PMC11061612 for this set.

System: KGN (Other Solid Carcinomas);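 further: after 72 h of two-drug dosing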
experiment_description: Bliss excess, mean over the matrix (fraction); higher = more synergy
reported_metric: Bliss excess

Observe how each entry below is paired with its result.
>  <molecule>
NC1(C(=O)N[C@@H](CCO)c2ccc(Cl)cc2)CCN(c2ncnc3[nH]ccc23)CC1 [Capivasertib] + Cn1cnc2c(F)c(Nc3ccc(Br)cc3Cl)c(C(=O)NOCCO)cc21 [Selumetinib] (first compound max 10 µM, 7x7, partner max 10 µM)

>  <test_target>
KGN (Other Solid Carcinomas);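 further: after 72 h of two-drug dosing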

>  <Bliss excess>
-0.0041

$$$$
>  <molecule>
O=C(c1cc(Cc2n[nH]c(=O)c3ccccc23)ccc1F)N1CCN(C(=O)C2CC2)CC1 [Olaparib] + CN(CC[C@H](CSC1=CC=CC=C1)NC2=C(C=C(C=C2)S(=O)(=O)NC(=O)C3=CC=C(C=C3)N4CCC(CC4)[C@H](C5=CC=CC=C5C6=CC=C(C=C6)Cl)O)S(=O)(=O)C(F)(F)F)CCO [AZD4320] (first compound max 10 µM, 7x7, partner max 1 µM)

>  <test_target>
KGN (Other Solid Carcinomas);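 further: after 72 h of two-drug dosing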

>  <Bliss excess>
-0.0153

$$$$
>  <molecule>
Cc1c2c(nn1C)CSCc1cc(n(C)n1)CSc1cc(c3ccccc3c1)OCCCc1c(C(=O)O)n(C)c3c-2c(Cl)ccc13 [AZD5991] + C[C@@H](Nc1cc(F)cc(F)c1)c1cc(C(=O)N(C)C)cc2c(=O)cc(N3CCOCC3)oc12 [AZD8186] (first compound max 1 µM, 7x7, partner max 3 µM)

>  <test_target>
KGN (Other Solid Carcinomas);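 further: after 72 h of two-drug dosing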

>  <Bliss excess>
-0.0528

$$$$
>  <molecule>
C=CCn1c(=O)c2cnc(Nc3ccc(N4CCN(C)CC4)cc3)nc2n1-c1cccc(C(C)(C)O)n1 [AZD1775] + CCc1c2c(nc3ccc(O)cc13)-c1cc3c(c(=O)n1C2)COC(=O)[C@]3(O)CC [SN-38] (first compound max 1 µM, partner max 0.3 µM)

>  <test_target>
KGN (Other Solid Carcinomas);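 further: after 72 h of two-drug dosing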

>  <Bliss excess>
-0.114

$$$$
>  <molecule>
Cc1cc2ncnn2cc1Nc1ncc2c(n1)n(C1CCOCC1)c(=O)n2C [AZD7648] + C=CCn1c(=O)c2cnc(Nc3ccc(N4CCN(C)CC4)cc3)nc2n1-c1cccc(C(C)(C)O)n1 [AZD1775] (first compound max 10 µM, partner max 1 µM)

>  <test_target>
KGN (Other Solid Carcinomas);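 further: after 72 h of two-drug dosing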

>  <Bliss excess>
-0.0266

$$$$

Q: Which Bliss excess value belongs to NC1(C(=O)N[C@@H](CCO)c2ccc(Cl)cc2)CCN(c2ncnc3[nH]ccc23)CC1 [Capivasertib] + CC(=O)c1c(C)c2cnc(Nc3ccc(N4CCNCC4)cn3)nc2n(C2CCCC2)c1=O [Palbociclib] (first compound max 10 µM, 7x7, partner max 10 µM) ?
Ans: 0.0128

Q: Entry C[C@@H](Oc1cc(-c2cnn(C3CCNCC3)c2)cnc1N)c1c(Cl)ccc(F)c1Cl [Crizotinib] + Cn1cnc2c(F)c(Nc3ccc(Br)cc3Cl)c(C(=O)NOCCO)cc21 [Selumetinib] (first compound max 10 µM, 7x7, partner max 10 µM) please
Ans: -0.086
